Test system: rat pheochromocytoma cells, treated as neuronal cells (PC12)
Test: Cytotoxicity, cellular viability (CCK-8/WST-8) on PC12
Type: cell-based
Details: rat, 48 h, 10 μM
observable: viability of the cells as a percentage of the untreated cells (%)

NCC(N)CCC(=O)NCCCn1cccc(O)c1=O (stereo not shown) [Compound 37c] | 91
NCC(N)CCCCNC(=O)CCn1cccc(O)c1=O (stereo not shown) [Compound 37b] | 115
COc1cc(/C=C/C(=O)N2CCN(C(=O)CCC(N)CN)CC2)ccc1O (stereo not shown) [Compound 29a] | 94
NCC(N)CCCCNC(=O)c1cc(O)c(O)c(O)c1 (stereo not shown) [Compound 30b] | 95
NCC(N)CCC(=O)N1CCN(C(=O)c2cc(O)c(O)c(O)c2)CC1 (stereo not shown) [Compound 30a] | 96
COc1cc(/C=C/C(=O)NCCCCC(N)CN)ccc1O (stereo not shown) [Compound 29b] | 95
NCC(N)CCCNC(=O)CCn1cccc(O)c1=O (stereo not shown) [Compound 37a] | 96

---

System: human fibroblasts (MRC-5)
Assay: Cytotoxicity, cellular viability (CCK-8/WST-8) on MRC-5
Assay type: cell-based
Settings: MRC-5, 10 μM, 48 h of treatment
Known viability of the cells as a percentage of the untreated cells of a selection of molecules
observable: viability of the cells as a percentage of the untreated cells

NCC(N)CCCNC(=O)CCn1cccc(O)c1=O (centres unmarked) [Compound 37a] | 107%
COc1cc(/C=C/C(=O)NCCCCC(N)CN)ccc1O (centres unmarked) [Compound 29b] | 95%
NCC(N)CCCCNC(=O)c1cc(O)c(O)c(O)c1 (centres unmarked) [Compound 30b] | 92%
Cl.Cl.NCC(N)C(=O)N1CCNCC1 (centres unmarked) [Dap-Pip, reference compound] | 113%
NCC(N)CCC(=O)NCCCn1cccc(O)c1=O (centres unmarked) [Compound 37c] | 94%
NCC(N)CCCCNC(=O)CCn1cccc(O)c1=O (centres unmarked) [Compound 37b] | 103%
COc1cc(/C=C/C(=O)N2CCN(C(=O)CCC(N)CN)CC2)ccc1O (centres unmarked) [Compound 29a] | 104%
NCC(N)CCC(=O)N1CCN(C(=O)c2cc(O)c(O)c(O)c2)CC1 (centres unmarked) [Compound 30a] | 101%

---

Known viability of the cells as a percentage of the untreated cells of a selection of compounds
System: human fibroblasts (MRC-5)
Assay: Cytotoxicity, cellular viability (CCK-8/WST-8) on MRC-5
Assay type: cell-based
Conditions: MRC-5, 100 μM, 24 h of treatment
observable: viability of the cells as a percentage of the untreated cells

NCC(N)CCC(=O)N1CCN(C(=O)c2cc(O)c(O)c(O)c2)CC1 (stereo not drawn) [Compound 30a] | 112%
NCC(N)CCC(=O)NCCCn1cccc(O)c1=O (stereo not drawn) [Compound 37c] | 89%
NCC(N)CCCNC(=O)CCn1cccc(O)c1=O (stereo not drawn) [Compound 37a] | 124%

---

Test system: murine endothelial brain cells (bEnd.3)
Experiment: Cytotoxicity, cellular viability (CCK-8/WST-8) on bEnd.3
Type: cell-based
Details: mouse, 24 h, 10 μM
observable: viability of the cells as a percentage of the untreated cells (%)

NCC(N)CCCCNC(=O)c1cc(O)c(O)c(O)c1 (stereo not shown) [Compound 30b] | 93
NCC(N)CCC(=O)N1CCN(C(=O)c2cc(O)c(O)c(O)c2)CC1 (stereo not shown) [Compound 30a] | 117
NCC(N)CCCNC(=O)CCn1cccc(O)c1=O (stereo not shown) [Compound 37a] | 97
NCC(N)CCCCNC(=O)CCn1cccc(O)c1=O (stereo not shown) [Compound 37b] | 126
COc1cc(/C=C/C(=O)N2CCN(C(=O)CCC(N)CN)CC2)ccc1O (stereo not shown) [Compound 29a] | 98
COc1cc(/C=C/C(=O)NCCCCC(N)CN)ccc1O (stereo not shown) [Compound 29b] | 92
NCC(N)CCC(=O)NCCCn1cccc(O)c1=O (stereo not shown) [Compound 37c] | 99

---

Test system: murine endothelial brain cells (bEnd.3)
Experiment: Cytotoxicity, cellular viability (CCK-8/WST-8) on bEnd.3
Format: cell-based
Conditions: mouse, 48 h, 10 μM
observable: viability of the cells as a percentage of the untreated cells

COc1cc(/C=C/C(=O)N2CCN(C(=O)CCC(N)CN)CC2)ccc1O (stereo not shown) [Compound 29a] | 90%
NCC(N)CCC(=O)NCCCn1cccc(O)c1=O (stereo not shown) [Compound 37c] | 86%
NCC(N)CCCCNC(=O)CCn1cccc(O)c1=O (stereo not shown) [Compound 37b] | 101%
NCC(N)CCC(=O)N1CCN(C(=O)c2cc(O)c(O)c(O)c2)CC1 (stereo not shown) [Compound 30a] | 95%
COc1cc(/C=C/C(=O)NCCCCC(N)CN)ccc1O (stereo not shown) [Compound 29b] | 92%
NCC(N)CCCNC(=O)CCn1cccc(O)c1=O (stereo not shown) [Compound 37a] | 99%
NCC(N)CCCCNC(=O)c1cc(O)c(O)c(O)c1 (stereo not shown) [Compound 30b] | 92%

---

Tested on: rat pheochromocytoma cells, treated as neuronal cells (PC12)
Assay: Cytotoxicity, cellular viability (CCK-8/WST-8) on PC12
Format: cell-based
Details: rat, 24 h, 10 μM
Known viability of the cells as a percentage of the untreated cells of a selection of compounds
observable: viability of the cells as a percentage of the untreated cells (%)

NCC(N)CCC(=O)N1CCN(C(=O)c2cc(O)c(O)c(O)c2)CC1 (stereo not shown) [Compound 30a] | 116
NCC(N)CCCCNC(=O)CCn1cccc(O)c1=O (stereo not shown) [Compound 37b] | 138
COc1cc(/C=C/C(=O)N2CCN(C(=O)CCC(N)CN)CC2)ccc1O (stereo not shown) [Compound 29a] | 100
COc1cc(/C=C/C(=O)NCCCCC(N)CN)ccc1O (stereo not shown) [Compound 29b] | 108
NCC(N)CCCNC(=O)CCn1cccc(O)c1=O (stereo not shown) [Compound 37a] | 93
NCC(N)CCC(=O)NCCCn1cccc(O)c1=O (stereo not shown) [Compound 37c] | 110
NCC(N)CCCCNC(=O)c1cc(O)c(O)c(O)c1 (stereo not shown) [Compound 30b] | 110

---

Known viability of the cells as a percentage of the untreated cells of a selection of molecules
System: human fibroblasts (MRC-5)
Assay: Cytotoxicity, cellular viability (CCK-8/WST-8) on MRC-5
Type: cell-based
Conditions: MRC-5, 100 μM, 24 h of treatment
observable: viability of the cells as a percentage of the untreated cells

COc1cc(/C=C/C(=O)N2CCN(C(=O)CCC(N)CN)CC2)ccc1O (centres unmarked) [Compound 29a] | 99%
NCC(N)CCCCNC(=O)c1cc(O)c(O)c(O)c1 (centres unmarked) [Compound 30b] | 101%
NCC(N)CCCCNC(=O)CCn1cccc(O)c1=O (centres unmarked) [Compound 37b] | 113%
Cl.Cl.NCC(N)C(=O)N1CCNCC1 (centres unmarked) [Dap-Pip, reference compound] | 128%
COc1cc(/C=C/C(=O)NCCCCC(N)CN)ccc1O (centres unmarked) [Compound 29b] | 102%

Values were extracted from patent US10464920B2.
